# assayed.target: PPARγ (Homo sapiens)
# Construct: Following the challenge of the preadipocytes, cells may be lysed with lysis buffer; endogenous in cells; host or cells: preadipocytes
# Sequence (P37231 1-505): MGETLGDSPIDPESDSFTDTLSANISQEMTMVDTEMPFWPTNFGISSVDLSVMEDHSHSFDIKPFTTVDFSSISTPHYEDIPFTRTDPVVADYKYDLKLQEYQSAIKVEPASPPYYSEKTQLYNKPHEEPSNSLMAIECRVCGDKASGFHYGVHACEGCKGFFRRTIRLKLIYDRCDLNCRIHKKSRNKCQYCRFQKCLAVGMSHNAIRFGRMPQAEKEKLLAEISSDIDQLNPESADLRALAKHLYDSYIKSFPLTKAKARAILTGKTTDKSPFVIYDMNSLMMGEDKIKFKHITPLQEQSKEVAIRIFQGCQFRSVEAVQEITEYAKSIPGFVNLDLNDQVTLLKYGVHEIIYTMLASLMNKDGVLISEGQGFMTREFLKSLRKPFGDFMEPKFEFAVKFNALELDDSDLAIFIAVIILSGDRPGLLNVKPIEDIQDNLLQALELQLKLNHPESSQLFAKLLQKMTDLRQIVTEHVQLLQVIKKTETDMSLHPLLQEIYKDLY
# protocol.text: aP2 Assay for PPAR Gamma Agonists (bDNA aP2 mRNA, preadipocytes)
# Format: cell-based
# condition.info: fold induction, unbracketed values; PPARγ standard FI = 70.3
quantity.name: PPARγ FI

Answered cases to consult:
> print(dat)
                                   molecule        assayed.target  quantity.name  endpoint.result
1  CCN(C(=O)Nc1ccc(SC(F)(F)F)cc1)C1Cc2ccc(SC(C)(C)C(=O)O)cc2C1 (centres unmarked)  PPARγ (Homo sapiens)       PPARγ FI              3.7
2  CCCCCN(C(=O)Nc1ccc(OC(F)(F)F)cc1)C1Cc2ccc(SC(C)(C)C(=O)O)cc2C1 (centres unmarked)  PPARγ (Homo sapiens)       PPARγ FI              1.9
3  CCCCN(C(=O)Nc1ccc(SC(F)(F)F)cc1)C1Cc2ccc(SC(C)(C)C(=O)O)cc2C1 (centres unmarked)  PPARγ (Homo sapiens)       PPARγ FI             0.43

(P) CC(C)CCN(C(=O)Nc1ccc(OC(F)(F)F)cc1)C1Cc2ccc(SC(C)(C)C(=O)O)cc2C1 (centres unmarked)
(Q) CCCCCN(C(=O)Nc1ccc(C(C)(C)C)cc1)C1Cc2ccc(SC(C)(C)C(=O)O)cc2C1 (centres unmarked)
(R) CCN(C(=O)Nc1ccc(N(C)C)cc1)C1Cc2ccc(SC(C)(C)C(=O)O)cc2C1 (centres unmarked)
QUERY: Please rank these molecules by PPARγ FI in descending order. Show the ranking through the labels, in the order asked for.
RESULT: Q, P, R

(I) CCN(C(=O)Nc1ccc(C(C)C)cc1)C1Cc2ccc(SC(C)(C)C(=O)O)cc2C1 (centres unmarked)
(II) CCCCCN(C(=O)Nc1ccc(N(C)C)cc1)C1Cc2ccc(SC(C)(C)C(=O)O)cc2C1 (centres unmarked)
QUERY: Record comparison, field PPARγ FI: mark the lower of I and II . Write down the label attached to your selection.
RESULT: I
(I: 1.9, II: 2.9)
